Target: BKV serotype IV chimeric infectious virus (VP1 of strain ITA-4) (BK virus serotype IV)
Assay: cell-based or functional assay
ENDPOINT_LABEL: neutralization EC90
Record the result as number plus unit.

Here are 2 binders together with their reported answers.
BINDER	neutralization EC90
P8D11C (antibody, V domains shown) VH: QVQLVESGGTLVQPGGSLRLSCAASGFTFQNYWMTWVRQAPGKGLEWVANIKKDGSEKYYVDSVRGRFTISRDNAKNSLFLQMNSLRPEDTAVYFCATVRSGRYFALDDWGQGTLVTVSS VL: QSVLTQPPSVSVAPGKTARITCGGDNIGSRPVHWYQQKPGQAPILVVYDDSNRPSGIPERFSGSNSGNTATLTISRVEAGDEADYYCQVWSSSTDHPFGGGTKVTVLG	0.54 mg/L
P7G11 (antibody, human IgG1, lambda, V domains shown) VH: QVQLQESGPGLAKPSQTLSLTCSVSGGSISSGGYSWSWIRQPPGKGLEYIGYIYYRGTTYYNPSLKSRITMSVDTSNNQISLKLTSVTAADTAVYYCARALTHLVGVGWFDPWGQGTMVTVSS VL: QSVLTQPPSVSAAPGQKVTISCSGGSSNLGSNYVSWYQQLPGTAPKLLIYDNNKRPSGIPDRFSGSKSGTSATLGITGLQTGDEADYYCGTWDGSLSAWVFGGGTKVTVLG	0.48 mg/L

Field: next binder
# get_value(readout='neutralization EC90', item= P8D11A (antibody, V domains shown) VH: QVQLVESGGTLVQPGGSLRLSCAASGFTFSNYWMTWVRQAPGKGLEWVANIKKDGSEKYYVDSVRGRFTISRDNAKNSLFLQMNSLRPEDTAVYFCATVRSGRYFALDDWGQGTLVTVSS VL: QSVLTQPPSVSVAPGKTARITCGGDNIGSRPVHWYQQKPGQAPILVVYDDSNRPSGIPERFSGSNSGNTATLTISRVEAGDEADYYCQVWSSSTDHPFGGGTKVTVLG )
0.064 mg/L
